Reference for the values: ChEMBL document CHEMBL3414433

# protocol.notes: Drug uptake in blood of Lewis rat collagen-induced arthritis model at 30 mg/kg, po qd administered on day 15 post immunization measured at 24 hrs on day 18
# Type: ADME, organism-based
# Design: dose 30 mg/kg, route oral
# test.parameters: read-out: Drug uptake
value.type: concentration at 24 h (nM)
Reply with just the number (in nM).

Prompt: State the recorded concentration at 24 h for this entry: NC(=O)c1nnc(N[C@@H]2CCCC[C@@H]2N)nc1Nc1cccc2cc[nH]c12
Response: 461

====

# protocol.notes: Oral bioavailability in Beagle dog at 0.3 mg/kg
# Format: ADME, organism-based, Canis lupus familiaris
# test.parameters: in vivo
value.type: bioavailability (%)
Reply with just the number (in %).

Prompt: State the recorded bioavailability for this entry: NC(=O)c1nnc(N[C@@H]2CCCC[C@@H]2N)nc1Nc1cccc2cc[nH]c12
Response: 54

====

# system: hERG (KCNH2) (Homo sapiens, UniProt Q12809)
# Sequence (Q12809 whole entry): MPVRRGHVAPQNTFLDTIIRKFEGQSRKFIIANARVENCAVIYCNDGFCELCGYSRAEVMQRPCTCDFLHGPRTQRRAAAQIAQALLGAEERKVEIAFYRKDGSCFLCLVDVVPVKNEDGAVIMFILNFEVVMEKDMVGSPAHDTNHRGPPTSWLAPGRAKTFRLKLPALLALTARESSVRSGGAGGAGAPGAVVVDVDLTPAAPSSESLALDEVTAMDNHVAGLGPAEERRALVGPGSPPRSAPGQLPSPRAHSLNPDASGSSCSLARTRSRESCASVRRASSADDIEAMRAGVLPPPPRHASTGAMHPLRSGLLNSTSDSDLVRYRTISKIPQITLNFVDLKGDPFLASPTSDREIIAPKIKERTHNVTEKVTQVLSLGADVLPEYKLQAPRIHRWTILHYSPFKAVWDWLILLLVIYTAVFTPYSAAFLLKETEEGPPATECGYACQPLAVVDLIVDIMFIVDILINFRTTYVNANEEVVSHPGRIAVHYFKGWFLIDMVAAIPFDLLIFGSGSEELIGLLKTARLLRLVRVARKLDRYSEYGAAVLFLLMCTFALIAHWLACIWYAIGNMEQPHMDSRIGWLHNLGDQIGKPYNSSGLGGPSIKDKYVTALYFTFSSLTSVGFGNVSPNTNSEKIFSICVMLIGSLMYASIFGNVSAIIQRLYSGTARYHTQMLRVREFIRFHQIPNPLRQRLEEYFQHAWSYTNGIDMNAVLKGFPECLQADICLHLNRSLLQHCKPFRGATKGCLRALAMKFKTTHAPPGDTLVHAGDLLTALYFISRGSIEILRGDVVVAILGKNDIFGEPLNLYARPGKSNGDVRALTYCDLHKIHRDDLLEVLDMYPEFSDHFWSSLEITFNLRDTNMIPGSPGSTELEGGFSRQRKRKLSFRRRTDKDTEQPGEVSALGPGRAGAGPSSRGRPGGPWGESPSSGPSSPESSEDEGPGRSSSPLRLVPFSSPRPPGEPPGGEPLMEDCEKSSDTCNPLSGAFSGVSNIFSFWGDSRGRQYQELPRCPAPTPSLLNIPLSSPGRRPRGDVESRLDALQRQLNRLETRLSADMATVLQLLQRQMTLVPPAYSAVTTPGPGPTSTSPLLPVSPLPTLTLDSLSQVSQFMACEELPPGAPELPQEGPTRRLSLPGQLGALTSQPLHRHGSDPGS
# protocol.notes: Inhibition of human ERG at 3 uM by manual patch clamp assay relative to control
value.type: inhibition at 3 µM (%)
Reply with just the number (in %).

Prompt: State the recorded inhibition at 3 µM for this entry: NC(=O)c1ncc(N[C@@H]2CCCC[C@@H]2N)nc1Nc1cccc2cc[nH]c12
Response: 13

====

# protocol.notes: Drug uptake in blood of Lewis rat collagen-induced arthritis model at 10 mg/kg, po qd administered on day 15 post immunization measured at 8 hrs on day 18
# Assay type: ADME, organism-based
# Parameters: dose 10 mg/kg, route oral
# test.parameters: read-out: Drug uptake
value.type: concentration at 8 h (nM)
Reply with just the number (in nM).

Prompt: State the recorded concentration at 8 h for this entry: NC(=O)c1nnc(N[C@@H]2CCCC[C@@H]2N)nc1Nc1cccc2cc[nH]c12
Response: 349

====

# protocol.notes: Mean residence time in Beagle dog at 0.1 mg/kg, iv and 0.3 mg/kg, po
# Type: ADME, organism-based, Canis lupus familiaris
# test.parameters: in vivo
value.type: MRT (h)
Reply with just the number (in h).

Prompt: State the recorded MRT for this entry: NC(=O)c1nnc(N[C@@H]2CCCC[C@@H]2N)nc1Nc1cccc2cc[nH]c12
Response: 8.4

====

# system: Interleukin-1 receptor-associated kinase 1 (Homo sapiens, UniProt P51617)
# Sequence (P51617 whole entry): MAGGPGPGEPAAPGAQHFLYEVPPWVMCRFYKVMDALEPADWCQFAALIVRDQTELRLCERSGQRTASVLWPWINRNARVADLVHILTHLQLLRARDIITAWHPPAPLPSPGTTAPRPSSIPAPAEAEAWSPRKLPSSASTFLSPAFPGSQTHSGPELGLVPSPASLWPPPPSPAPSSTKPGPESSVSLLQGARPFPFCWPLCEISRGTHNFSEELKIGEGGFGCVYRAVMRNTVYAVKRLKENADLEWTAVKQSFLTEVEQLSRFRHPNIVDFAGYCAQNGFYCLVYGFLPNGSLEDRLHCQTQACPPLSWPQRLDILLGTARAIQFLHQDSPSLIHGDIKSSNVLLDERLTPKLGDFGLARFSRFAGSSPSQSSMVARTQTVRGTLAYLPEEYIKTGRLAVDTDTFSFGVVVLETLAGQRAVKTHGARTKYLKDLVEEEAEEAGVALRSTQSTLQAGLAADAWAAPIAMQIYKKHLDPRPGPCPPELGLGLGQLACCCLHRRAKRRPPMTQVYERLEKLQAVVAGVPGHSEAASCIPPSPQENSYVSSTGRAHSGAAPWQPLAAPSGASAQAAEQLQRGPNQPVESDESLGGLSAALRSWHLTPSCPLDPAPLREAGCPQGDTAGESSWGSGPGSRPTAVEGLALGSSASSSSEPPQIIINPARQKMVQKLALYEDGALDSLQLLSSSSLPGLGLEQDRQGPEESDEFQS
value.type: Kd (nM)
Reply with just the number (in nM).

Prompt: Request body: readout Kd, system Interleukin-1 receptor-associated kinase 1 (Homo sapiens, UniProt P51617), query NC(=O)c1nnc(N[C@@H]2CCCC[C@@H]2N)nc1Nc1cccc2cc[nH]c12 . Return the value.
Response: 67

====

Listed below: bioavailability values for each entry.
# protocol.notes: Oral bioavailability in Sprague-Dawley rat at 3 mg/kg administered as cassette dosing
# Type: ADME, organism-based
# test.parameters: in vivo
Reply with just the number (in %).

Prompt: State the recorded bioavailability for this entry: NC(=O)c1nnc(N[C@@H]2CCCC[C@@H]2N)nc1Nc1cccc2cc[nH]c12
Response: 60

Prompt: State the recorded bioavailability for this entry: NC(=O)c1ncc(N[C@@H]2CCCC[C@@H]2N)nc1Nc1cccc2cc[nH]c12
Response: 95

Prompt: State the recorded bioavailability for this entry: NC(=O)c1nnc(N[C@@H]2CCCC[C@@H]2N)nc1Nc1cccc2[nH]ccc12
Response: 4

====

# system: STE20-like serine/threonine-protein kinase (Homo sapiens)
# Sequence (Q9H2G2 whole entry): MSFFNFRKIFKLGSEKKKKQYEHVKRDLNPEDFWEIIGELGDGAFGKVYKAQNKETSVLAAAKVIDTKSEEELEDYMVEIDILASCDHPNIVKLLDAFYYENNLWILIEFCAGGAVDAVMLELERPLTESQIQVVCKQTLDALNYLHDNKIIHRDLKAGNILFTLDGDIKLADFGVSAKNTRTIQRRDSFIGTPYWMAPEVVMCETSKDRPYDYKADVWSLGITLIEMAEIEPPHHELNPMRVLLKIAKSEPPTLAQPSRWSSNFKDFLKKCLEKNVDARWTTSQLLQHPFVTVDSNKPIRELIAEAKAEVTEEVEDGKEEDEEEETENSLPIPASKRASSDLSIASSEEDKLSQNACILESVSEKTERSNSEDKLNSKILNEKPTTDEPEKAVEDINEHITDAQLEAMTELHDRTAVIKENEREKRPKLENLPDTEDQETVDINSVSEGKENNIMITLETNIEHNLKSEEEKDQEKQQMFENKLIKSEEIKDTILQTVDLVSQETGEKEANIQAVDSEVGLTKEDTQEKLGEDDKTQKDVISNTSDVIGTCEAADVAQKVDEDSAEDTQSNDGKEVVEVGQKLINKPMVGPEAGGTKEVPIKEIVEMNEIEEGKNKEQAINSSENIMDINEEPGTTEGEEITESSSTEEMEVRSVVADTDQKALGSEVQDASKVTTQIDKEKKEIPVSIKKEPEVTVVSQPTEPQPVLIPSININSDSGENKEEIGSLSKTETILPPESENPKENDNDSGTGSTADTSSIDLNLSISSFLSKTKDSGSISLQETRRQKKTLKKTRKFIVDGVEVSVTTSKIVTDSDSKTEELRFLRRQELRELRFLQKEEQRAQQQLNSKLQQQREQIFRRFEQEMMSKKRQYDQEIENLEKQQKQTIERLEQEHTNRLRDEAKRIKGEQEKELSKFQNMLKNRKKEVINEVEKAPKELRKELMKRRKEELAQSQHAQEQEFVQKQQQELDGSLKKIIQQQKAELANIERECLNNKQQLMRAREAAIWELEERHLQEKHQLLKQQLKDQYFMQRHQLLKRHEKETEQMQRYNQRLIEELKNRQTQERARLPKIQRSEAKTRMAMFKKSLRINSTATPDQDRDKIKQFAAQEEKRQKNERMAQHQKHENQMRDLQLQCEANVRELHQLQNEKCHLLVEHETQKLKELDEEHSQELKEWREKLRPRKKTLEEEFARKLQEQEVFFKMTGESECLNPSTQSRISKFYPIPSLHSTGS
value.type: pKd
Note on pKd: it is the negative log10 of concentration, concentration in mol/L.

Prompt: State the recorded pKd for this entry: NC(=O)c1nnc(N[C@@H]2CCCC[C@@H]2N)nc1Nc1cccc2cc[nH]c12
Response: 6.42
